Data credit: patent US20260193315A1

Below is a list of entries, each paired with its recorded Binding/Expression ratio value.
# target: 4-1BB (coated on ELISA plate) (UniProt Q07011 24-186, limits assumed)
# protocol_description: ELISA, binding OD450 / expression OD450
Quick one: just the number, no unit, thanks!

Answered examples (2):
binder="8B10 (ligand, also called 4-1BBL variant 8B10 (phagemid clone, bacterial supernatant)) 4-1BBL variant: ACPWAVSGARASPGSAASPRLREGPELSPDDPAGLLDLRQGMFAQLVAQNVLLIDGPLSWYTDPGLAGVSLTGGLSYKEDTKELVVAKAGVYYVFFQLELRRVVAGMGSGSVSLALHLQPLRSAAGAAALALTVDLPPASSEARNSAFGFQGRLLHLSAGQRLGVHLHTEARARHSWQLTQGATVLGLFRVTPEIPAGLPSPRSE" readout_value=2.65
binder="8E2 (ligand, also called 4-1BBL variant 8E2 (phagemid clone, bacterial supernatant)) 4-1BBL variant: ACPWAVSGARASPGSAASPRLREGPELSPDDPAGLLDLRQGMFAQLVAQNVLLIDGPLSWYPDPGLAGVSLTGGLSYKEDTKELVVAKAGVYYVFFQLELRRVVAFEGSGSVSLALHLQPLRSAAGAAALALTVDLPPASSEARNSAFGFQGRLLHLSAGQRLGVHLHTEARARHSWQLTQGATVLGLFRVTPEIPAGLPSPRSE" readout_value=0.21

Continue with the next binder.
Exam item: State the recorded Binding/Expression ratio for this entry: 1D2 (ligand, also called 4-1BBL variant 1D2 (phagemid clone, bacterial supernatant)) 4-1BBL variant: ACPWAVSGARASPGSAASPRLREGPELSPDDPAGLLDLRQGMFAQLVAQNVLLIDGPLSWYEDPGLAGVSLTGGLSYKEDTKELVVAKAGVYYVFFQLELRRVVAGTGSGSVSLALHLQPLRSAAGAAALALTVDLPPASSEARNSAFGFQGRLLHLSAGQRLGVHLHTEARARHALQLTQGATVLGLFRVTPEIPAGLPSPRSE
Marked response: 0.66
